- Measurement Description: RP, Waters ACQUITY UPLC BEH C18, 100 × 2.1 mm, 1.7 µm; A: water + 0.1% formic acid, pH 3; B: 80% acetonitrile + 20% acetone + 0.1% formic acid, pH 3; gradient (min/%B) 0/0 6/100
- Test Settings: stereoisomer not certain
Value Kind: LC retention time (min)

Some solved cases for reference:
CC(C)CC1NC(=O)C(C)NC1=O (centres undefined) [Cyclic(ala-leu)] | 1.86
CC(C)CC(NC(=O)CC(N)C(=O)O)C(=O)O (stereo not drawn) [beta-asp-leu] | 0.6
Cn1c[n+](C2OC(CO)C(O)C2O)c2nc(N)[nH]c(=O)c21 (centres undefined) [7-methylguanosine] | 1.17
CC[C@@H](O)C(=O)[O-] [(R)-2-hydroxybutyric acid] | 1.4
Cc1cc2nc3c(=O)[nH]c(=O)nc-3n(CC(O)C(O)C(O)CO)c2cc1C (centres undefined) [Riboflavin] | 1.68
CCCCCCCCCCCCCCCCOCC(COP(=O)([O-])OCC[N+](C)(C)C)OC(=O)CCCCCCCC(=O)O (centres undefined) [Azelaoyl PAF 10 ug/ml] | 4.86
CC(C)(CO)C(O)C(=O)NCCC(=O)NCCSSCCNC(=O)CCNC(=O)C(O)C(C)(C)CO (stereo not drawn) [d-pantethine] | 1.87
O=C(O)CNC(=O)c1cccnc1 [Nicotinuric acid] | 1.35
CC(C)C(=O)C(=O)O [Alpha-ketoisovaleric acid] | 1.45
Cn1cnc2c(ncn2C2OC(CO)C(O)C2O)c1=N (centres undefined) [1-methyladenosine] | 1.3

(P) CCCCCCCCCCCCCCCC(=O)OCC(O)COP(=O)([O-])OCC[N+](C)(C)C (centres undefined) [lysoPC(16:0/0:0)]
(Q) COc1cc2c(CCNC(C)=O)c[nH]c2cc1O [6-hydroxymelatonin]
(R) Nc1ncnc2nc[nH]c12 [Adenine]
(S) CC12CCC(=O)C=C1CCC1C2CCC2(C)C1CCC2(O)C(=O)CO (centres undefined) [11-Deoxy-17-hydroxycorticosterone]
Exercise: Rank descending by LC retention time. Please respond by ranking the labels in the order requested.
Solution: P, S, Q, R
(P: 4.4 min, S: 3.04 min, Q: 1.81 min, R: 0.685 min)

(a) O=C(O)CCC1NC(=O)C2CCCN2C1=O (centres undefined) [Cyclic(glu-pro)]
(b) NC(CS)C(=O)O (stereo not drawn) [l-cysteine]
Exercise: Pick one: a or b . Which has the bigger LC retention time number? # answer = label of selected item
Solution: a
(a: 1.43 min, b: 0.603 min)

(A) Nc1ccc(C(=O)O)cc1 [paba]
(B) CC(CCC(=O)O)C1CCC2C3C(=O)CC4CC(=O)CCC4(C)C3CC(=O)C12C (centres undefined) [dehydrocholic acid]
Exercise: Pick one: A or B . Which has the bigger LC retention time number? # answer = label of selected item
Solution: B
(B: 2.98 min, A: 1.5 min)

(A) O=C(O)Cc1c[nH]c2ccc(O)cc12 [5-hydroxyindole-3-acetic acid]
(B) CS(=O)CCC(N)C(=O)O (stereo not drawn) [dl methine sulfoxide]
Exercise: Hey, between A and B which has a smaller measured LC retention time? # answer = label of selected item
Solution: B
(B: 0.596 min, A: 1.61 min)
